Recorded half-life for the following compounds
# method-description: Half-life estimated by daily clearance rates (first-order model, k = Cltotal/Vd)
# Assay type: in vivo, human
# conditions-used: male, human, serum and urine, other: occupational exposure, Male workers, number 136; renal clearance; read-out: Half-life estimated through daily elimination, Median (converted)
# Source text: Olsen et al.[21] found linear relationship between the logarithm of serum PFAAs concentration and time, and a first order model was adopted to estimate the half-lives of PFAAs. The elimination of PFAAs in humans was also described with the following equation: […] If we set C(t) as 1/2C0, then the half-life where k is the elimination rate constant. We calculated k using two approaches in the present study. […]
property-name: half-life (days)

>>> reported_measurement("O=C(O)C(F)(F)C(F)(F)C(F)(F)C(F)(F)C(F)(F)C(F)(F)C(F)(F)F [PFOA, perfluorooctanoic acid]")
1610
>>> reported_measurement("O=S(=O)(O)C(F)(F)C(F)(F)C(F)(F)C(F)(F)C(F)(F)C(F)(F)F [PFHxS, perfluorohexane sulfonate]")
5300

The measurements presented in this section are drawn from paper PMC5131319.
